The entries below are paired with their reported Ki.
- MEASUREMENT PROTOCOL: Displacement of [3H]epibatidine from alpha4beta2* nAChR in Sprague-Dawley rat brain P2 membrane after 90 mins by liquid scintillation counting
- Format: tissue-based

{"SMILES NOTATION": "CCCCCCCCn1cc(CC[N+](C)(C)C)c2ccccc21", "RESULT": "0.527 µM"}
{"SMILES NOTATION": "CCCCCCCCn1c(C[N+](C)(C)C)cc2ccccc21", "RESULT": "> 10 µM"}

The compound listed as CCCCCCCCn1cc(CCCN(C)C)c2ccccc21 has a reported Ki of > 10 µM

Measured Ki of CCCCCCCCCCCCn1cc(CCN(C)C)c2ccccc21 : > 10 µM

###

- MEASUREMENT PROTOCOL: Displacement of [3H]epibatidine from alpha4beta2* nAChR in Sprague-Dawley rat brain P2 membrane after 90 mins by liquid scintillation counting
- Type: tissue-based
The compounds listed here are annotated with their pKi.
Just so you know, pKi here is -log10 of the concentration in molar units; reply with that number alone.

{"SMILES NOTATION": "CCCCCCCCn1cc(CCC[N+](C)(C)C)c2ccccc21", "PROPERTY NAME": "pKi", "RESULT": 6.61}

Pending compound:
Entry CC(C)=CCn1cc(CC[N+](C)(C)C)c2ccccc21 — recorded pKi = 6.87

###

- MEASUREMENT PROTOCOL: Displacement of [3H]epibatidine from alpha3beta4* nAChR in calf adrenal P1 membrane after 90 mins by liquid scintillation counting
- Type: cell membranes, Bos taurus
pKi: −log10 of the molar value.
PROPERTY NAME: pKi

Some entries whose results are on file:
{"SMILES NOTATION": "CCCCCCCCCCCCn1cc(C[N+](C)(C)C)c2ccccc21", "pKi": "< 5.00"}
{"SMILES NOTATION": "CCCCCCCCCCn1cc(CC[N+](C)(C)C)c2ccccc21", "pKi": "< 5.00"}
{"SMILES NOTATION": "CC(C)=CCn1cc(CN(C)C)c2ccccc21", "pKi": "< 5.00"}

Documented pKi of C=CCn1cc(CCNC)c2ccccc21 : < 5.00

###

- MEASUREMENT PROTOCOL: Displacement of [3H]epibatidine from alpha4beta2* nAChR in Sprague-Dawley rat brain P2 membrane after 90 mins by liquid scintillation counting
- Assay type: tissue-based
pKi: −log10 of the molar value.
PROPERTY NAME: pKi

{"SMILES NOTATION": "CCCCCCCCCCn1cc(CC[N+](C)(C)C)c2ccccc21", "RESULT": "< 5.00"}
{"SMILES NOTATION": "CCCCCCCCCCCCn1cc(CN(C)C)c2ccccc21", "RESULT": "< 5.00"}
{"SMILES NOTATION": "CC(C)=CCn1cc(CCN(C)C)c2ccccc21", "RESULT": "< 5.00"}
{"SMILES NOTATION": "CN(C)CCc1cn(C)c2ccccc12", "RESULT": "< 5.00"}
{"SMILES NOTATION": "C=CCn1cc(CC[N+](C)(C)C)c2ccccc21", "RESULT": 6.29}

Briefly, pKi measured for CC(C)=CCn1cc(CC[N+]2(C)CCCC2)c2ccccc21 : < 5.00

The measured pKi associated with CC(C)=CCn1cc(C[N+](C)(C)C)c2ccccc21 reads 6.36

Field pKi (entry CCCCCCCCn1c(CN(C)C)cc2ccccc21 ) reads < 5.00

compound CCCCCCCCn1cc(C[N+](C)(C)C)c2ccccc21 , pKi observed: 6.15
